TARGET ENTITY: Cytochrome P450 1A2 (Homo sapiens, UniProt P05177)
Sequence (P05177 whole entry): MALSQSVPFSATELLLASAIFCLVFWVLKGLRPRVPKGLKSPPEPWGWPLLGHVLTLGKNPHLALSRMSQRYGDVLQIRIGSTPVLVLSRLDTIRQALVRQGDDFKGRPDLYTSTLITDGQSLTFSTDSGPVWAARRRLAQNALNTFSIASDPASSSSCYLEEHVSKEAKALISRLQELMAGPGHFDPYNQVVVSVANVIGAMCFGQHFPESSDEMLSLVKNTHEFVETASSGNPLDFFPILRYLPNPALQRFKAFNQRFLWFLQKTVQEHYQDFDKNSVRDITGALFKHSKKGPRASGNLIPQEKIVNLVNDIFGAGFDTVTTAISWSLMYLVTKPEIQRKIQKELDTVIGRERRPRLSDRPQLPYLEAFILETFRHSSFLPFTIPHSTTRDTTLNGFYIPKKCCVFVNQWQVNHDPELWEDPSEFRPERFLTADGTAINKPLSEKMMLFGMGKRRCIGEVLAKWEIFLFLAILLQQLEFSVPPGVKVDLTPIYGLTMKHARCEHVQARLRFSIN

SAMPLE SMILES | DISPLAY UNIT | IC50
C[C@@H](n1cnc2cc(Cl)ccc2c1=O)[C@](O)(Cn1cncn1)c1ccc(F)cc1F | µM | 60.3

---

System: Candida parapsilosis
EXPERIMENT DESCRIPTION: Antifungal activity against Candida parapsilosis 22019 assessed as inhibition of fungal growth incubated for 24 hrs by CLSI protocol based microbroth dilution method
Assay type: functional
EXPERIMENTAL CONTEXT: Lodderomyces parapsilosis
Items are presented alongside their recorded MIC50.
REPORTED ENDPOINT: MIC50 (µg/mL)

SAMPLE SMILES | TARGET ENTITY | COMPARISON SIGN | REPORTED RESULT
C[C@@H](n1cnc2cc(F)ccc2c1=O)[C@](O)(Cn1cnnn1)c1ccc(F)cc1F | Candida parapsilosis | = | 0.5
C[C@@H](c1ncncc1F)[C@](O)(Cn1cncn1)c1ccc(F)cc1F | Candida parapsilosis | = | 0.016
C[C@@H](n1ncc2cn(-c3ccc(F)c(Cl)c3)nc2c1=O)[C@](O)(Cn1cncn1)c1ccc(F)cc1F | Candida parapsilosis | = | 2
O[C@@](Cn1cnnn1)(c1ccc(F)cc1F)C(F)(F)c1ccc(-c2ccc(OCC(F)(F)F)cc2)cn1 | Candida parapsilosis | < | 0.008
Cc1ccc2c(=O)n([C@H](C)[C@](O)(Cn3cncn3)c3ccc(F)cc3F)ccc2c1 | Candida parapsilosis | < | 0.008
C[C@@H](n1ncc2cc(Br)ccc2c1=O)[C@](O)(Cn1cncn1)c1ccc(F)cc1F | Candida parapsilosis | < | 0.008

---

Tested on: Pichia kudriavzevii
EXPERIMENT DESCRIPTION: Antifungal activity against Candida krusei 4946 assessed as inhibition of fungal growth incubated for 24 hrs by CLSI protocol based microbroth dilution method
Assay type: functional
Items are presented alongside their recorded MIC50.

SAMPLE SMILES | TARGET ENTITY | COMPARISON SIGN | MIC50 / µg/mL
C[C@@H](n1ncc2cn(-c3ccc(C(F)(F)F)cc3)nc2c1=O)[C@](O)(Cn1cncn1)c1ccc(F)cc1F | Pichia kudriavzevii | = | 16
C[C@@H](n1ccc2cc(C(F)(F)F)ccc2c1=O)[C@](O)(Cn1cncn1)c1ccc(F)cc1F | Pichia kudriavzevii | = | 0.063
C[C@@H](n1ncc2cc(Br)ccc2c1=O)[C@](O)(Cn1cncn1)c1ccc(F)cc1F | Pichia kudriavzevii | = | 0.063
C[C@@H](n1ncc2cn(-c3ccc(F)c(Cl)c3)nc2c1=O)[C@](O)(Cn1cncn1)c1ccc(F)cc1F | Pichia kudriavzevii | > | 64
C[C@@H](n1ncc2cn(-c3ccc(Cl)cc3)nc2c1=O)[C@](O)(Cn1cncn1)c1ccc(F)cc1F | Pichia kudriavzevii | > | 64
C[C@@H](n1cnc2cc(C(F)(F)F)ccc2c1=O)[C@](O)(Cn1cnnn1)c1ccc(F)cc1F | Pichia kudriavzevii | > | 4
C[C@@H](n1ccc2cc(F)ccc2c1=O)[C@](O)(Cn1cncn1)c1cc(F)ccc1F | Pichia kudriavzevii | = | 0.125
C[C@@H](n1ncc2cn(-c3ccc(C#N)cc3)nc2c1=O)[C@](O)(Cn1cncn1)c1ccc(F)cc1F | Pichia kudriavzevii | > | 64
C[C@@H](n1cnc2cc(F)ccc2c1=O)[C@](O)(Cn1cnnn1)c1ccc(F)cc1F | Pichia kudriavzevii | > | 4
Cc1ccc2c(=O)n([C@H](C)[C@](O)(Cn3cncn3)c3ccc(F)cc3F)ccc2c1 | Pichia kudriavzevii | = | 0.125
